- test.summary: replicating M. tuberculosis growth inhibition, dose response, non-replicating M. tuberculosis project, H37Rv (AID 492952);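 also: Mycobacterium tuberculosis grown in culture; growth inhibition read after a week of incubation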
- conditions.used: series mostly up to 50 µM
In all, about 2,300 compounds went through this assay and about 1,500 (65%) were called active. So high a share suggests a set chosen from earlier hits. Some of the results follow. Measured potencies and affinities stand elsewhere.

compound | outcome
CCOC(=O)C1(O)CC(C)=NN1C(=O)c1cccc(Br)c1 (stereo not given) | inactive
CC(=O)Oc1ccc(N(C(C)=O)S(=O)(=O)c2cccs2)c2ccccc12 | inactive
Cc1cccc2c(CC(=O)O)noc12 | inactive
O=C(N/N=C/c1cccc([N+](=O)[O-])c1O)c1cccs1 | inactive
O=c1oc2ccccc2c2c1nnn2CCO | inactive
CN(C)CCN1C(=O)c2oc3ccccc3c(=O)c2C1c1cccc(Br)c1 (stereo not given) | inactive
CC1(C)Oc2ccc(NC(=O)C3COc4ccccc4O3)cc2O1 (stereo not given) | inactive
O=C(NCCc1cccc(Cl)c1)c1cc2ccccc2oc1=O | inactive
Cc1ccccc1OCCC(=O)OCC(=O)NNC(=O)c1cccs1 | inactive
O=C(N/N=C/c1cn[nH]c1-c1ccccc1)c1ccco1 | inactive
S=C(Nc1ccc2c(c1)OCO2)Nc1ccc2c(c1)OCO2 | inactive
CC(=O)Nc1cccc(-c2nc3ccccc3c(=O)o2)c1 | inactive
Cc1cc(Cl)ccc1NNC(=O)c1cccs1 | inactive
O=C(CCSc1nnc(-c2ccncc2)o1)Nc1cccc(Cl)c1 | inactive
O=C(NC1=NCCS1)c1ccc(-c2ccc(Cl)cc2)o1 | inactive
CCc1ccccc1NC(=O)C1COc2ccccc2O1 (stereo not given) | inactive
CCc1ccc(C2=C/C(=C/c3cccnc3)C(=O)O2)cc1 | inactive
CC1(C)C[C@H]2C=C(C=O)[C@]3(C=O)C[C@]3(C)[C@H]2C1 | inactive
Cc1ccsc1C(=O)OCC(=O)NCCC1=CCCCC1 | inactive
COc1cc(C=O)ccc1OCCCCOc1ccccc1[N+](=O)[O-] | inactive
O=C(N[C@@H]1C[C@H]2CC[C@@H]1C2)c1ccco1 | inactive
Cc1ccccc1NC(=O)C1COc2ccccc2O1 (stereo not given) | inactive
O=C(c1ccc(Br)o1)N1CCC(Cc2ccccc2)CC1 | inactive
Cc1nnc(SCCC(=O)Nc2ccc(Cl)cc2)o1 | inactive
O=C(c1cccs1)N1CCN(c2ccc(Cl)cc2)CC1 | inactive
CCCCCCCC(=O)N/N=C(\C)c1ccc(O)cc1O | inactive
O=C(OCC#CCSc1nnc(-c2ccncc2)o1)c1cccs1 | inactive
FC(F)(F)c1ccc(-c2nnc(-c3cccnc3)o2)cc1 | inactive
C/C(=N/NC(=O)c1cc2ccccc2cc1O)C1C(=O)c2ccccc2C1=O | inactive
O=C(Nc1cccnc1)c1cc(Cl)ccc1Cl | inactive
O=C(NNC(=O)c1cccs1)c1ccc(Br)o1 | inactive
N#CC1=C(N)Oc2c(ccc3cccnc23)C1c1ccccc1 (stereo not given) | inactive
CCc1ccc(OCCCC(=O)Nc2nccs2)cc1 | inactive
COc1ccc(NC(=O)C2COc3ccccc3O2)cc1 (stereo not given) | inactive
Cc1ccc(CCC(=O)Nc2ccc([N+](=O)[O-])cc2)o1 | inactive
CN1C(=O)CC(Sc2ccccc2C(=O)O)C1=O (stereo not given) | inactive
O=C(COc1ccc2ccccc2c1)NNC(=O)c1cccs1 | inactive
NC(=O)c1ccc(-c2ccc(Br)cc2)o1 | inactive
Nn1c(SCCOc2ccc(Cl)cc2)nnc1-c1cccnc1 | inactive
O=C(NNC1CC(=O)N(c2ccccc2)C1=O)c1ccco1 (stereo not given) | inactive
O=C(Nc1ccc(N2CCN(C(=O)c3ccco3)CC2)c(Cl)c1)c1cccs1 | inactive
OC(C#CCN1CCOCC1)c1cccs1 (stereo not given) | inactive
CCOC(=O)Cc1cc(=O)n2[nH]cc(-c3ccc(Cl)cc3)c2n1 | inactive
COc1cc(C(=O)CCN2CCC(c3ccccc3)C2)cc(OC)c1OC (stereo not given) | inactive
CCOC(=O)C1CCN(CCCSc2ccc(Cl)cc2)CC1 | inactive
Cc1cc(Cl)ccc1NNC(=O)c1c(C)noc1C | inactive
CC(C)(C)c1ccc(C(=O)N2CCCC2)s1 | inactive
CCOC(=O)Cc1ccc(NCc2ccc(Cl)cc2)cc1 | inactive
CC1(c2nnc(-c3ccccc3)o2)CC(c2ccc(Cl)cc2)=NO1 (stereo not given) | inactive
COc1ccccc1N1CCN(C(=O)CCn2c(=O)[nH]c3ccsc3c2=O)CC1 | inactive
